- Test system: Murine macrophages J774.A1
- TEST METHOD NOTES: Cytotoxicity assay (alamarBlue)
- Format: cell-based
- SETUP CONDITIONS: murine macrophages, 24 h, mean ± standard deviation
ENDPOINT NAME: IC50 (cytotoxic concentration 50, CC50) (µM)
Give the value, in units of µM, as a plain number.

In [3]: df
Out[3]:
                     compound  observed
0  N#C/C=C/C(=O)Nc1ccccc1 [A]     94.78

(Q) System Murine macrophages J774.A1. Read-out IC50 (cytotoxic concentration 50, CC50). Item N#C/C=C/C(=O)NCc1ccccc1 [C] . Report value.
(A) 208.01

(Q) Supply IC50 (cytotoxic concentration 50, CC50) measured with Murine macrophages J774.A1 for O=C(Cn1ccnc1[N+](=O)[O-])NCc1ccccc1 [Benznidazole, reference compound] .
(A) 399.91

(Q) Look up and report IC50 (cytotoxic concentration 50, CC50), with Murine macrophages J774.A1 as system, for COc1ccc(NC(=O)/C=C/C#N)cc1 [G]
(A) 266.62

(Q) Give IC50 (cytotoxic concentration 50, CC50) for COc1ccc(N2C(=N)C=CC2=O)cc1 [H] tested on Murine macrophages J774.A1.
(A) 2.42

(Q) Give IC50 (cytotoxic concentration 50, CC50) for COc1ccc(CNC(=O)/C=C/C#N)cc1 [E] tested on Murine macrophages J774.A1.
(A) 319.61

(Q) Give reported IC50 (cytotoxic concentration 50, CC50) for N=C1C=CC(=O)N1c1ccccc1 [B] (Murine macrophages J774.A1)
(A) 118.07

---

- System: L3 larvae of Culex pipiens
- TEST METHOD NOTES: Larvicidal (in vivo toxicity) assay against mosquito larvae
- SETUP CONDITIONS: IC90 of compound, 24 h
ENDPOINT NAME: larval viability

In [3]: df
Out[3]:
                                   compound     endpoint_name  observed
0                   N#C/C=C/C(=O)NCc1ccccc1  larval viability     Alive
1                    N=C1C=CC(=O)N1c1ccccc1  larval viability     Alive
2                COc1ccc(NC(=O)/C=C/C#N)cc1  larval viability     Alive
3  O=C(Cn1ccnc1[N+](=O)[O-])NCc1ccccc1 [Benznidazole, reference compound]  larval viability     Alive

---

- Tested on: L3 larvae of Culex pipiens
- TEST METHOD NOTES: Larvicidal (in vivo toxicity) assay against mosquito larvae
- SETUP CONDITIONS: IC90 of compound, 48 h
ENDPOINT NAME: larval viability

>>> df
                                   compound  observed
0  O=C(Cn1ccnc1[N+](=O)[O-])NCc1ccccc1 [Benznidazole, reference compound]     Alive
1                COc1ccc(NC(=O)/C=C/C#N)cc1     Alive
2                   N#C/C=C/C(=O)NCc1ccccc1     Alive
3                    N=C1C=CC(=O)N1c1ccccc1     Alive

---

- Tested on: L3 larvae of Culex pipiens
- TEST METHOD NOTES: Larvicidal (in vivo toxicity) assay against mosquito larvae
- SETUP CONDITIONS: IC90 of compound, 12 h
ENDPOINT NAME: larval viability

In [3]: df
Out[3]:
                                   molecule  observed
0                    N=C1C=CC(=O)N1c1ccccc1     Alive
1                COc1ccc(NC(=O)/C=C/C#N)cc1     Alive
2                   N#C/C=C/C(=O)NCc1ccccc1     Alive
3  O=C(Cn1ccnc1[N+](=O)[O-])NCc1ccccc1 [Benznidazole, reference compound]     Alive

---

- Test system: L3 larvae of Culex pipiens
- TEST METHOD NOTES: Larvicidal (in vivo toxicity) assay against mosquito larvae
- SETUP CONDITIONS: 2IC90 (two times IC90) of compound, 24 h
ENDPOINT NAME: larval viability

>>> df
                                   compound  observed
0  O=C(Cn1ccnc1[N+](=O)[O-])NCc1ccccc1 [Benznidazole, reference compound]     Alive
1                COc1ccc(NC(=O)/C=C/C#N)cc1     Alive
2                   N#C/C=C/C(=O)NCc1ccccc1     Alive
3                    N=C1C=CC(=O)N1c1ccccc1     Alive
